Recorded measurements of TGI, one per entry
- Test system: PC-3 prostate
- Protocol description: NCI tumour cell line growth inhibition, 48 h

Consider the worked cases shown below.
Compound	System	Property measured	Reported result
CC1=NN(c2cccc(Cl)c2)C(=O)/C1=C\C=C\c1ccccc1	PC-3 prostate	TGI	> 100 µM
Cc1nc2c(O)c3c(c(O)c2nc1C)C1C=CC3CC1	PC-3 prostate	TGI	35.9 µM
C=C1C2CC3CCC2C(OC(=O)c2ccccc2C(=O)O)C13 (stereo not given)	PC-3 prostate	TGI	> 100 µM

## Input Find TGI (PC-3 prostate) for the entry CC(=O)OC1CC(OC2C(O)CC(OC3C(O)CC(OC4CCC5(C)C(CCC6C5CCC5(C)C(C7=CC(=O)OC7)CCC65O)C4)OC3C)OC2C)OC(C)C1OC1OC(CO)C(O)C(O)C1O (stereo not given)
## Output 0.159 µM

## Input Which measured TGI belongs to `COc1cc2c(NC3CCN(C(C)C)CC3)nc(C3CCCCC3)nc2cc1OCCCN1CCCC1` , tested on PC-3 prostate?
## Output 22.4 µM

====

- Test system: ACHN renal
- Protocol description: NCI tumour cell line growth inhibition, 48 h
Let's look at some compounds and their measured TGI.

Some entries whose results are on file:
> print(dat)
                                   compound      system  property.measured  reported.result
1  O=C(NCc1ccco1)C1CCN(S(=O)(=O)c2ccc(Cl)cc2)CC1  ACHN renal                TGI         > 100 µM
2  Cc1c(Cl)cccc1NC(=O)c1sc2nc3c(cc2c1N)C(=O)CCC3  ACHN renal                TGI        > 61.5 µM
3  Cn1cc(C2=C(c3cc[nH]c3)C(=O)NC2=O)c2ccccc21  ACHN renal                TGI          > 25 µM
4    NC(Cc1cccnn1)C(=O)O (stereo not given)  ACHN renal                TGI         > 100 µM

API: the following record is the query input.
## Input Consider the compound `CCOC(=O)CC(=O)Nc1cccc2sc3ncccc3c(=O)c12` and give its measured TGI.
## Output > 100 µM

====

- Test system: UACC-62 melanoma
- Protocol description: NCI tumour cell line growth inhibition, 48 h; in the data active = GI50 below about 0.43 µM; inactive = the rest
# valid calls are active, inactive; nothing else

Past entries and their recorded results:
> print(dat)
                            chemical.smiles     class
1  Cc1c(Cl)cccc1NC(=O)c1sc2nc3c(cc2c1N)C(=O)CCC3    active
2  COC(=O)c1c2c(c(C)[n+]([O-])c1C)C(=O)C(NCc1ccc(F)cc1)=CC2=O  inactive

Next:
## Input Record lookup: outcome of this test for `O=C(N/N=C/c1cc(Cl)ccc1O)c1ccccc1Nc1ccnc(C(F)(F)F)c1` ?
## Output active

====

- Test system: RXF 393 renal
- Protocol description: NCI tumour cell line growth inhibition, 48 h
Entries and their measured TGI follow.
The reply should contain only the number, in µM.

Known TGI results, listed for orientation:
Compound	System	TGI (µM)
CCCCCCCCCC(=O)NC(CCC(=O)N(CCNC(=O)c1nc(-c2ccccc2)oc1-c1ccccc1)Cc1ccccc1)C(=O)O (stereo not drawn)	RXF 393 renal	36.8
CC1=CC(C)(C)Nc2ccc(Cc3ccc4c(c3)C(C)=CC(C)(C)N4)cc21	RXF 393 renal	88.7
COc1ccc(C[C@@H](C(=O)O[C@H](C)[C@H](NC(=O)[C@@H](CC(C)C)N(C)C(=O)C2CCCN2C(=O)[C@H](C)O)C(=O)N2CCCCNC(=O)[C@@H](C)C(=O)[C@H](C(C)C)OC(=O)C[C@H](O)[C@H]2CC(C)C)N(C)C(C)=O)cc1 (stereo partly drawn)	RXF 393 renal	20.6

Proceed to the following item.
## Input Reported TGI for `O=c1cc(-c2ccccc2)oc2cc(OCCCCCN3CCOCC3)cc(O)c12` : what is it?
## Output 46.1

====

Overview of reported TGI across a group of molecules:
- System: SF-268 CNS
- Protocol description: NCI tumour cell line growth inhibition, 48 h

Reference set (3 entries):
Molecule	System	Reported result
COc1ccc(C[C@@H](C(=O)O[C@H](C)[C@H](NC(=O)[C@@H](CC(C)C)N(C)C(=O)C2CCCN2C(=O)[C@H](C)O)C(=O)N2CCCCNC(=O)[C@@H](C)C(=O)[C@H](C(C)C)OC(=O)C[C@H](O)[C@H]2CC(C)C)N(C)C(C)=O)cc1 (some centres undefined)	SF-268 CNS	> 50 µM
CSCC(CO)NC(=O)/C=C/c1c(C)[nH]c(=O)[nH]c1=O (centres undefined)	SF-268 CNS	> 875 µM
CNC(=O)CCCNC(=O)CCCCC(=O)N(C)C	SF-268 CNS	> 100 µM

## Input // query TGI value for entry `C[C@H]1COCCN1c1nc(-c2cnc(N)cc2C(F)F)nc(N2CCOCC2)n1`
## Output > 100 µM

====

- Tested on: SNB-75 CNS
- Protocol description: NCI tumour cell line growth inhibition, 48 h
Property measured: TGI

> print(dat)
                                   compound  reported.result
1  CN1C(=O)[C@H](c2c[nH]c3ccccc23)[C@H](c2c[nH]c3ccccc23)C1=O        > 92.8 µM
2  CC1(C)N=C(c2ccccc2)SC12S[C@@H]1CCCC[C@H]1S2         > 100 µM

Now consider the entry below.
## Input I'd like to know its TGI. The compound in question is O=C1NC2(CCCCC2)C2CCCCC=C12 (stereo not drawn)
## Output > 100 µM

====

# TGI per record follows
- Tested on: SF-295 CNS
- Protocol description: NCI tumour cell line growth inhibition, 48 h

Known results for compounds:
> print(dat)
                                   compound  property.measured  reported.result
1  O=C(NCc1ccco1)C1CCN(S(=O)(=O)c2ccc(Cl)cc2)CC1                TGI         > 100 µM
2  O=C1NC2(CCCCC2)C2CCCCC=C12 (centres undefined)                TGI         > 100 µM

## Input Sample `CN(C)c1cccc(OC(=O)NCCCl)c1` — what was its TGI?
## Output > 100 µM

## Input For the compound shown here, `O=[N+]([O-])C(C(Cl)=C(Cl)Cl)=C(n1nnc2ccccc21)n1nnc2ccccc21` , give the reported TGI.
## Output > 67.9 µM

====

TGI by entry:
- System: OVCAR-3 ovarian
- Protocol description: NCI tumour cell line growth inhibition, 48 h

These solved cases illustrate the format of a correct answer.
> print(dat)
                            chemical.smiles           system  reported.result
1  COC(=O)c1ccc(C(=O)OC)c2nc3cc(Cl)ccc3nc12  OVCAR-3 ovarian         > 100 µM
2             Cc1ccc(C)n2c1nc1cc3ccccc3cc12  OVCAR-3 ovarian         > 100 µM
3  O=C1C(Cl)=C(Cl)C(=O)N1c1cccc(C(F)(F)F)c1  OVCAR-3 ovarian         > 100 µM
4  COc1c2cc([N+](=O)[O-])cc1CN(C(=O)C(F)(F)F)CCOCCN(C(=O)C(F)(F)F)C2  OVCAR-3 ovarian         > 100 µM
5  CN1C(=O)[C@H](c2c[nH]c3ccccc23)[C@H](c2c[nH]c3ccccc23)C1=O  OVCAR-3 ovarian        > 56.5 µM

Here is another compound to look at.
## Input Need TGI of `Cc1c(NC(=O)Nc2c(Cl)cccc2Cl)c(=O)n(-c2ccccc2)n1C` , thanks.
## Output > 100 µM

====

Each entry below carries its recorded TGI.
- Test system: ACHN renal
- Protocol description: NCI tumour cell line growth inhibition, 48 h

Consider the worked cases shown below.
Compound	TGI
CC(C)[C@@H]1CC[C@@H](C)C[C@H]1OC(=O)/C=C1\C(C(=O)O[C@@H]2C[C@H](C)CC[C@H]2C(C)C)[C@H]2C=C[C@@H]1O2 (stereo partly specified)	> 100 µM
COc1cc(C2c3cc4c(cc3[C@@H](Nc3ccc([N+](=O)[O-])cc3)C3COC(=O)[C@H]23)OCO4)cc(OC)c1O (stereo partly specified)	2.82 µM
C/C(O)=C(\C=NC(=S)c1cccnc1)C(=O)Nc1ccccc1C	> 100 µM
O=C1NC2(CCCCC2)C2CCCCC=C12 (stereo unspecified)	> 100 µM
Cc1cc2c3c([n+](C)c4ccc(F)cc4c3c1)-c1cc(F)ccc1N2C	> 100 µM

## Input Sample C[C@]12CC(C=O)C(=O)C(O)=C1CC[C@@H]1C2CC[C@@]2(C)C1CC[C@]2(C)O (stereo partly specified) — what was its TGI?
## Output 51.2 µM
